- target.desc: human T-type calcium channels (human Cav3.2) (Homo sapiens (Human), UniProt O95180)
- Sequence (O95180 whole entry): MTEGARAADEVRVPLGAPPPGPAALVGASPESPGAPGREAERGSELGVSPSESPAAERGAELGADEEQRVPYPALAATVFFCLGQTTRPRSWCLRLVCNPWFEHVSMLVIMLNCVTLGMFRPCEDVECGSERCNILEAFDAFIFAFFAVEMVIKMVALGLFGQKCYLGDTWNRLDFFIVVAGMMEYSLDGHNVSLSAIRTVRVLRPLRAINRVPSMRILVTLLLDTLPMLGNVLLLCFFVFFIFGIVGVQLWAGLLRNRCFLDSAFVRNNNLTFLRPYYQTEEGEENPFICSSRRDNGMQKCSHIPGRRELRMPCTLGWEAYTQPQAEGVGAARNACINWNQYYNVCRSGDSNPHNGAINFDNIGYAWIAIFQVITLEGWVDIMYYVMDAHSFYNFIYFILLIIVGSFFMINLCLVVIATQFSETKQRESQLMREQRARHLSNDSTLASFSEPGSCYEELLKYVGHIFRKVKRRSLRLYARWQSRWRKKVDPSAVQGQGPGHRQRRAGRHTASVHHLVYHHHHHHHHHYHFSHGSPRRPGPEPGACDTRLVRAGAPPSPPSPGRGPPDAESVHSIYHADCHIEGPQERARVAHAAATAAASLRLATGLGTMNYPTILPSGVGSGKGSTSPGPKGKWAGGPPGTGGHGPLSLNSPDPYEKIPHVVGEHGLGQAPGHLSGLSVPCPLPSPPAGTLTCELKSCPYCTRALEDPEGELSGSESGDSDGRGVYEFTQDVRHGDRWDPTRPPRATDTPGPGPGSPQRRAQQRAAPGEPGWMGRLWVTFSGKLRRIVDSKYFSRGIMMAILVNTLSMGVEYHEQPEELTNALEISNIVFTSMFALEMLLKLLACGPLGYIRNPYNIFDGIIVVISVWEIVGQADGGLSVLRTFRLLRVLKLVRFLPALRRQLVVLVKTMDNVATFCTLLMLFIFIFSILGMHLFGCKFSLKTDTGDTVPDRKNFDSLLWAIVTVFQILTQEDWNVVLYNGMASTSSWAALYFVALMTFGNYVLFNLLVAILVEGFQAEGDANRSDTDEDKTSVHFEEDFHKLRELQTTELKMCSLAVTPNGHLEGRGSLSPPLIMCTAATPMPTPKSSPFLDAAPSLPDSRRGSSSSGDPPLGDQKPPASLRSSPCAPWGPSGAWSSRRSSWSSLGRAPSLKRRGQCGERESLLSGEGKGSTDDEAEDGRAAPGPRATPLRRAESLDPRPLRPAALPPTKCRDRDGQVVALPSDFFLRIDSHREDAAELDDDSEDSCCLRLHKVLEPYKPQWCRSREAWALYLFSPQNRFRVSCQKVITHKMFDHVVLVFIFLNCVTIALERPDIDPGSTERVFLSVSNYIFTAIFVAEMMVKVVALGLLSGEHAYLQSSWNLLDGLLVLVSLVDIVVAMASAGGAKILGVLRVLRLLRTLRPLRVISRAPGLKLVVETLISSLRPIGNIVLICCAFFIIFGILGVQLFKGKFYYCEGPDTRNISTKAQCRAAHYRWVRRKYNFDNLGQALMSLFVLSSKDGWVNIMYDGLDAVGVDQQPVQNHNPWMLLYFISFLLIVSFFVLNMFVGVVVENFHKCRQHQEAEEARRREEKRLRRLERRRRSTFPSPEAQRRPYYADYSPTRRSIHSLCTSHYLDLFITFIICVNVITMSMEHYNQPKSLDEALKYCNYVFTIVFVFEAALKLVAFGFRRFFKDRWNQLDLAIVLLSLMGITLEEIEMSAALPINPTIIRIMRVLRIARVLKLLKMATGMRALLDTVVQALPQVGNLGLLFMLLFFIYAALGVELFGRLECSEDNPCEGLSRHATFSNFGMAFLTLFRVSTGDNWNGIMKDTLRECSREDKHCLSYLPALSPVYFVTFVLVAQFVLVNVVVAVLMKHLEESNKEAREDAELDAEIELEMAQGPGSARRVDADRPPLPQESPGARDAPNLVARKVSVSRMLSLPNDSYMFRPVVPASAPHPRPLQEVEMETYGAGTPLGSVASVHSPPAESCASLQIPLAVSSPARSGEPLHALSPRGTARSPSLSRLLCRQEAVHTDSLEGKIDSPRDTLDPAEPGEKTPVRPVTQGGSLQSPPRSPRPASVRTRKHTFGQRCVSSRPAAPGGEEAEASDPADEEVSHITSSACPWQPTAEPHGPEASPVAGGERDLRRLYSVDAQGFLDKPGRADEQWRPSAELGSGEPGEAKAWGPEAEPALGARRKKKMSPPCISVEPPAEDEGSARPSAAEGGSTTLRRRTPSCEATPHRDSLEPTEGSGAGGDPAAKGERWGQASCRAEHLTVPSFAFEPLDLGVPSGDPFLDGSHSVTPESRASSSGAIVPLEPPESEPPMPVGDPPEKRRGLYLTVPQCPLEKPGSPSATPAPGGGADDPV
- procedure.summary: Antagonistic activity against T-type calcium channels (Cav3.2), Fura2 intracellular calcium assay in HEK293 cells
- Assay type: cell-based
- run.parameters: HEK293 cells stably expressing human Cav3.2; Fura2 fluorescence ratio after calcium chloride addition; read-out: IC50
Provide the reported IC50 of each item.
One number for each entry, in nM.

Completed entries (count: 5):
CC(C)(C)NC(=O)CN1[C@@H]2CC[C@H]1C[C@H](CNC(=O)c1ccc(F)cc1)C2 [Example 78] = 44
COc1cc(C)cc(C(=O)NC[C@@H]2C[C@H]3CC[C@@H](C2)N3CC(=O)NC(C)(C)C)c1 [Example 72] = 55
CC(C)(C)NC(=O)CN1[C@@H]2CC[C@H]1C[C@H](CNC(=O)c1ccc3c(c1)CCCO3)C2 [Example 59] = 61
COc1cccc2[nH]c(C[C@@H]3C[C@H]4CC[C@@H](C3)N4CC(=O)NC(C)(C)C)nc12 [Example 124] = 96
COc1cc(F)cc(NC(=O)C[C@@H]2C[C@H]3CC[C@@H](C2)N3CC(=O)NC(C)(C)C)c1 [Example 3] = 69

For each listed entry, give its IC50.
1. CC1(NC(=O)CN2[C@@H]3CC[C@H]2C[C@H](CNC(=O)c2cc(F)cc(Cl)c2)C3)CC1 [Example 115]
2. CC(C)(C)NC(=O)CN1[C@@H]2CC[C@H]1C[C@H](CNC(=O)c1cccc(Cl)c1)C2 [Example 52]
3. CC(C)(C)NC(=O)CN1[C@@H]2CC[C@H]1C[C@@H](CNC(=O)C13CC4CC(CC(C4)C1)C3)C2 [Example 144]
4. Cn1nc(C(C)(C)C)cc1C(=O)NC[C@@H]1C[C@H]2CC[C@@H](C1)N2CC(=O)NC(C)(C)C [Example 69]
5. CC(C)(C)NC(=O)CN1[C@@H]2CC[C@H]1C[C@@H](CC(=O)NC13CC4CC(CC1C4)C3)C2 [Example 131]

A:
[63, 48, 44, 51, 49]

For each listed entry, give its IC50.
1. CC(C)(C)NC(=O)CN1[C@@H]2CC[C@H]1C[C@H](CNC(=O)c1csc3c1CCCC3)C2 [Example 16]
2. COCC(C)(C)NC(=O)CN1[C@@H]2CC[C@H]1C[C@H](CNC(=O)c1cc(F)cc(Cl)c1)C2 [Example 104]
3. CC(C)(C)NC(=O)CN1[C@@H]2CC[C@H]1C[C@H](CNC(=O)C(C)(C)Oc1ccc(C3CC3(Cl)Cl)cc1)C2 (some centres unmarked) [Example 27]
4. Cc1cccc2[nH]c(C[C@@H]3C[C@H]4CC[C@@H](C3)N4CC(=O)NC(C)(C)C)nc12 [Example 120]

A:
47
13
94
59

###

- target.desc: human T-type calcium channels (human Cav3.2) (Homo sapiens (Human), UniProt O95180)
- procedure.summary: Antagonistic activity against T-type calcium channels (Cav3.2), Fura2 intracellular calcium assay in HEK293 cells
- Type: cell-based
- run.parameters: HEK293 cells stably expressing human Cav3.2; Fura2 fluorescence ratio after calcium chloride addition; read-out: IC50
Provide the reported pIC50 of each item.
Answers are plain numbers, as −log10 of the molar value.

COc1cccc(OC(C)(C)C(=O)NC[C@@H]2C[C@H]3CC[C@@H](C2)N3CC(=O)NC(C)(C)C)c1 = 7.01
O=C(CN1[C@@H]2CC[C@H]1C[C@H](CNC(=O)c1cc(F)cc(Cl)c1)C2)NC1(C(F)(F)F)CC1 = 7.15

For each listed entry, give its pIC50.
1. CC(C)(C)NC(=O)CN1[C@@H]2CC[C@H]1C[C@H](CC(=O)NC13CC4CC(CC(C4)C1)C3)C2
2. Cn1cc(C(=O)NC[C@@H]2C[C@H]3CC[C@@H](C2)N3CC(=O)NC(C)(C)C)c2cc(Cl)ccc21

A:
7.09
7.07

###

Provide the reported IC50 of each item.
- target.desc: human T-type calcium channels (human Cav3.2) (Homo sapiens (Human), UniProt O95180)
- procedure.summary: Antagonistic activity against T-type calcium channels (Cav3.2), Fura2 intracellular calcium assay in HEK293 cells
- Format: cell-based
- run.parameters: HEK293 cells stably expressing human Cav3.2; Fura2 fluorescence ratio after calcium chloride addition; read-out: IC50
Numbers only, in µM.

CC(C)(C)NC(=O)CN1[C@@H]2CC[C@H]1C[C@H](CNC(=O)C(C)(C)Oc1ccccc1)C2 = 0.065
COc1cc(C)cc(C(=O)NC[C@@H]2C[C@H]3CC[C@@H](C2)N3CC(=O)NC2(C(F)(F)F)CC2)c1 = 0.058
CC(C)(C)CCC(=O)NC[C@@H]1C[C@H]2CC[C@@H](C1)N2CC(=O)NC(C)(C)C = 0.064
CC(C)(C)NC(=O)CN1[C@@H]2CC[C@H]1C[C@H](CNC(=O)C1C(C)(C)C1(C)C)C2 = 0.042
CC(C)(C)NC(=O)CN1[C@@H]2CC[C@H]1C[C@H](CNC(=O)C13CC4CC(CC(C4)C1)C3)C2 = 0.099

For each listed entry, give its IC50.
1. CC(C)(C)NC(=O)CN1[C@@H]2CC[C@H]1C[C@@H](CC(=O)NC13CC4CC(CC(C4)C1)C3)C2
2. Cc1cc(F)cc(C(=O)NC[C@@H]2C[C@H]3CC[C@@H](C2)N3CC(=O)NC(C)(C)C)c1
3. Cc1cc(C(=O)NC[C@@H]2C[C@H]3CC[C@@H](C2)N3CC(=O)NC(C)(C)C)n(C)n1
4. CC(C)(C)NC(=O)CN1[C@@H]2CC[C@H]1C[C@H](CC(=O)Nc1cccc(Cl)c1)C2
5. CC1(NC(=O)CN2[C@@H]3CC[C@H]2C[C@H](CNC(=O)c2cc(F)cc(Cl)c2)C3)COC1
6. CC(C)(C)NC(=O)CN1[C@@H]2CC[C@H]1C[C@H](CNC(=O)c1cccc3c1CCC3)C2
7. Cc1cccc2[nH]c(C[C@H]3C[C@H]4CC[C@@H](C3)N4CC(=O)NC(C)(C)C)nc12
8. CN(C(=O)CN1[C@@H]2CC[C@H]1C[C@H](CNC(=O)c1cc(F)cc(Cl)c1)C2)C(C)(C)C

A:
1: 0.066; 2: 0.036; 3: 0.203; 4: 0.068; 5: 0.093; 6: 0.078; 7: 0.083; 8: 0.078

Q: If you can, please state the reported IC50 value of COc1ccc2[nH]c(C[C@@H]3C[C@H]4CC[C@@H](C3)N4CC(=O)NC(C)(C)C)nc2c1OC .
A: 0.138
